assay: small-molecule binders of probe aInhba, primary screen, biochemical, small-molecule microarray, 635/667 nm fluorescence (AID 1148); settings: higher = more signal;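 note: score merges 667nm spot fluorescence with signal-to-noise for antibody binding to printed compounds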
Entries and their composite z-score values follow.
Could you respond with only the numeric value?

Below, 8 compounds whose answers are already recorded.
1) CCOc1cc(C(O)C2C=CC3C(=O)N(c4ccccc4)C(=O)C3N2Nc2ccc(C#N)cc2)ccc1O (centres undefined) | 0.288
2) CN1C(=O)C2C=CC(C(O)c3ccc(F)cc3)N(Nc3ccccc3)C2C1=O (centres undefined) | 0.203
3) [N-]=[N+]=NCc1ccccc1C[C@@]1(C(=O)NCc2ccccc2)N=C(c2ccc(OCCCO)cc2)O[C@@H]1c1ccccc1N=[N+]=[N-] | -0.003
4) COc1ccc([Si](C)(C)[C@@H]2[C@@H](CCO)O[C@]3(C(=O)N(Cc4ccc(N5CCCCC5=O)cc4)c4ccccc43)[C@H]2C)cc1 | -0.0471
5) [N-]=[N+]=NCc1ccccc1[C@@H]1OC(c2ccc(OCCCO)cc2)=N[C@]1(CCS(=O)(=O)c1ccccc1)C(=O)NCC(O)CO (some centres undefined) | 0.0073
6) CN1C(=O)C2C=CC(C(O)C#Cc3ccccc3)N(Nc3ccccc3)C2C1=O (centres undefined) | 0.153
7) [N-]=[N+]=Nc1ccccc1C[C@]1(C(N)=O)N=C(c2ccc(OCCCO)cc2)O[C@H]1c1ccccc1N=[N+]=[N-] | 0.189
8) C=CCNC(=O)[C@H]1[C@@H]2C(=O)O[C@@H](c3ccccc3)[C@@H](c3ccccc3)N2[C@@H](c2ccc(O)cc2)[C@]12C(=O)N(C(=O)OCCOC)c1ccccc12 | 0.122

Let's switch to this compound now.
[in] Which value of composite z-score has been reported for "COCCCNC(=O)[C@@]1(Cc2ccccc2N=[N+]=[N-])N=C(c2ccc(OCCCO)cc2)O[C@H]1c1ccccc1" in the records?
[out] 0.0589
